Biological target: UniProt P56817
Test: In vitro enzymatic BACE FRET assay
Assay type: biochemical
Details: beta secretase enzyme 0.2 nM, FRET substrate 50 nM, pH 4.2; read-out: BACE1 FRET assay (IC50 class)
Metric name: IC50

Below, each entry is followed by its recorded IC50 result.
[[record]]
compound = "Cc1cccc(C(=O)N2CCCC2)c1-c1ccc2nc(N)c(N3CCOC(C)C3C)cc2c1 (centres unmarked)"
reported_value = "< 100 nM"

[[record]]
compound = "Cc1cccc(C(=O)N(C)CCc2ccccc2)c1-c1ccc2nc(N)c(N3CCOCC3)cc2c1"
reported_value = "100 to 500 nM"

[[record]]
compound = "Nc1nc2ccc(-c3ccccc3OCc3ccccc3)cc2cc1N1CCOCC1"
reported_value = "100 to 500 nM"

[[record]]
compound = "Cc1cccc(C(=O)c2cccc(C)c2-c2ccc3nc(N)c(N4CCOCC4)cc3c2)c1"
reported_value = "< 100 nM"

[[record]]
compound = "Nc1nc2ccc(-c3ccccc3C(O)C3CCOCC3)cc2cc1N1CCOCC1 (centres unmarked)"
reported_value = "1010 to 5000 nM"


Briefly, IC50 measured for `Cc1cccc(OCC(C)(C)C)c1-c1ccc2nc(N)c(N3CCOCC3)cc2c1` : < 100 nM

Kindly note the recorded IC50 for Cc1cccc(C(=O)N2CCCC2)c1-c1ccc2nc(N)c(C3CCCCO3)cc2c1 (centres unmarked) , which is 100 to 500 nM

Entry under test: `Cc1cccc(C(=O)N2CCCC2)c1-c1ccc2nc(N)c(N3CCCC3)cc2c1` . Its IC50 was 100 to 500 nM

`Cc1cccc(C(=O)N2[C@H](C)CCC[C@@H]2C)c1-c1ccc2nc(N)c(N3CCOCC3)cc2c1` yielded IC50 of < 100 nM

IC50 in this record for `Nc1nc2ccc(-c3c(C#CC4CCCCC4)cccc3C(=O)N3CCCC3)cc2cc1N1CCOCC1` : < 100 nM

IC50 reported for this compound `Cc1cccc(C(=O)N2CC[C@@H](C)C2)c1-c1ccc2nc(N)c(N3CCOCC3)cc2c1` : < 100 nM

IC50 measured on `Nc1nc2ccc(-c3ccc(Cl)cc3C(=O)N3CCCC3)cc2cc1N1CCOCC1` = 100 to 500 nM

Field IC50 (entry `Cc1cccc(C(=O)N2CCC2)c1-c1ccc2nc(N)c(N3CCOCC3)cc2c1` ) reads 100 to 500 nM

IC50 measured on `COc1ccccc1C(=N)c1cccc(C)c1-c1ccc2nc(N)c(N3CCOCC3)cc2c1` = < 100 nM

###

Target: BACE1 (Homo sapiens)
Sequence (P56817 46-501, species assumed): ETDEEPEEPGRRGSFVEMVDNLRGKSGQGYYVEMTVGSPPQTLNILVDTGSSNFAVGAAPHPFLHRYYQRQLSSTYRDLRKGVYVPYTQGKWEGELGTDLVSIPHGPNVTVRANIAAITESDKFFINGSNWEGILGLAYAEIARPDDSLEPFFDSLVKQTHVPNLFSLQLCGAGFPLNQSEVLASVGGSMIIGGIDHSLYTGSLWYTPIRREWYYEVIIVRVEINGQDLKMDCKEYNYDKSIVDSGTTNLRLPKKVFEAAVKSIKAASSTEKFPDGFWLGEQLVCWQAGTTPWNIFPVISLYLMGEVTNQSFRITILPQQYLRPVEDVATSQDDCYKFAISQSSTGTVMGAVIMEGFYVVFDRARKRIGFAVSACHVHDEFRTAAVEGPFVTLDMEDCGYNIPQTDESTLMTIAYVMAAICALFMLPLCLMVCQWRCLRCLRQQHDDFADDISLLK
Test: In vitro enzymatic BACE FRET assay
Assay type: biochemical
Conditions: beta secretase enzyme 0.2 nM, FRET substrate 50 nM, pH 4.2; read-out: BACE1 FRET assay (IC50 class)
Metric name: IC50

Example entries and their recorded answers appear below.
[[record]]
compound = "CC(C)(C)CCc1cccc(C(=O)N2CCC2)c1-c1ccc2nc(N)c(N3CCOCC3)cc2c1 [Example 164]"
target_under_test = "BACE1 (Homo sapiens)"
metric_name = "IC50"
reported_value = "< 100 nM"

[[record]]
compound = "Cc1cccc(C(=O)N2CCCC2)c1-c1ccc2nc(N)c(N3CCOCC3)cc2c1 [Example 1]"
target_under_test = "BACE1 (Homo sapiens)"
metric_name = "IC50"
reported_value = "< 100 nM"

[[record]]
compound = "Cc1cccc(C(c2ccccc2)n2ccnc2)c1-c1ccc2nc(N)c(N3CCOCC3)cc2c1 (stereo not shown) [Example 8]"
target_under_test = "BACE1 (Homo sapiens)"
metric_name = "IC50"
reported_value = "1010 to 5000 nM"


IC50 reading for Cc1cccc(Cc2ccc(F)cc2)c1-c1ccc2nc(N)c(N3CCOCC3)cc2c1 [Example 201] : < 100 nM

IC50 for COc1cccc(C(=O)c2cccc(C)c2-c2ccc3nc(N)c(N4CCOCC4)cc3c2)c1 [Example 177] is 100 to 500 nM

Reported IC50 ( Cc1cccc(C(=O)N2CCC(F)(F)CC2)c1-c1ccc2nc(N)c(N3CCOCC3)cc2c1 [Example 109] ) = < 100 nM

Per the records, this compound ( Cc1cccc(C#CC(C)(C)C)c1-c1ccc2nc(N)c(N3CCOCC3)cc2c1 [Example 40] ) has IC50 equal to < 100 nM
